# targetEntity: Histone-lysine N-methyltransferase 2A/WDR5 (Homo sapiens, UniProt P61964)
# methodSummary: Inhibition of MLL1/WDR5 (unknown origin) protein-protein interaction incubated for 60 mins by HTRF analysis
measuredParameter: IC50 (nM)

Here are 5 molecules together with their reported answers.
# entrySmiles, targetEntity, scaleUnit, IC50
measured = [
    ("Cc1[nH]cnc1CNc1cc2c(c(-c3ccc(Cl)cc3C(F)(F)F)c1)CCN(CCc1ccc(Cl)cc1)C2=O", "Histone-lysine N-methyltransferase 2A/WDR5 (Homo sapiens, UniProt P61964)", "nM", 75.8),
    ("COc1cc(CN2CCc3c(cc(Cn4ccn(C)c4=N)cc3-c3ccc(F)cc3C)C2=O)cc(OC)c1", "Histone-lysine N-methyltransferase 2A/WDR5 (Homo sapiens, UniProt P61964)", "nM", 6.8),
    ("CSc1ccccc1-c1cc(NCc2nc[nH]c2C)cc2c1CCN(CCc1ccc(Cl)cc1)C2=O", "Histone-lysine N-methyltransferase 2A/WDR5 (Homo sapiens, UniProt P61964)", "nM", 41.6),
    ("CSc1cc(F)ccc1-c1cc(NCc2nc[nH]c2C)cc2c1CCN(Cc1ccc(Cl)cc1)C2=O", "Histone-lysine N-methyltransferase 2A/WDR5 (Homo sapiens, UniProt P61964)", "nM", 26.9),
    ("CNC(=O)[C@@H](Cc1ccc(Cl)cc1)NC(=O)c1cc(NCc2nc[nH]c2C)cc(-c2cc(CO)ccc2C)c1", "Histone-lysine N-methyltransferase 2A/WDR5 (Homo sapiens, UniProt P61964)", "nM", 8.6),
]

P = Cc1[nH]cnc1CNc1cc(Br)cc(C(=O)N[C@H](Cc2ccc(Cl)cc2)C(=O)NC2CC2)c1
Q = CSc1ccccc1-c1cc(NCc2nc[nH]c2C)cc2c1CCCN(CCc1ccc(Cl)cc1)C2=O
Returns: the argument ( P or Q ) having the larger IC50. Respond using the label that marks the chosen record.
Q
(Q: 319 nM, P: 32.4 nM)

A = CNC(=O)[C@@H](Cc1ccc(Cl)cc1)NC(=O)c1cc(Br)cc(NCc2nc[nH]c2C)c1
B = Cc1[nH]cnc1CNc1cc(Br)cc(C(=O)N[C@H](Cc2ccc(Cl)cc2)C(=O)O)c1
C = CNC(=O)[C@@H](Cc1ccc(Cl)cc1)NC(=O)c1cc(NCc2nc[nH]c2C)cc(-c2ccc(Cl)cc2C(F)(F)F)c1
D = Cc1ccc(CO)cc1-c1cc(NCc2nc[nH]c2C)cc2c1CCN(CCc1ccc(Cl)cc1)C2=O
E = CNC(=O)[C@@H](Cc1ccc(Cl)cc1)NC(=O)c1cc(NCc2nc[nH]c2C)cc(-c2ccc(C(C)(F)F)cc2)c1
Given 5 molecules, produce a descending ranking by IC50. # answer = labels listed in requested order
E, B, A, D, C
(E: 149 nM, B: 50 nM, A: 25.2 nM, D: 17.2 nM, C: 9.8 nM)

P = CSc1ccccc1-c1cc(NCc2nc[nH]c2C)cc2c1CCN(Cc1ccc(Cl)cc1)C2=O
Q = CNC(=O)[C@@H](Cc1ccc(Cl)cc1)NC(=O)c1cc(NCc2nc[nH]c2C)cc(-c2ccccc2C2CC2)c1
R = Cc1[nH]cnc1CNc1cc(Br)cc(C(=O)NCCc2ccc(Cl)cc2)c1
Rank ascending by IC50. Write the labels in rank order as requested.
Q, P, R
(Q: 18.8 nM, P: 40.5 nM, R: 221 nM)

I = CSc1cc(F)ccc1-c1cc(NCc2nc[nH]c2C)cc2c1CCN(CCc1ccc(Cl)cc1)C2=O
II = Cc1[nH]cnc1CNc1cc(C(=O)N[C@H](Cc2ccc([N+](=O)[O-])cc2)C(=O)O)ccc1F
Param metric = IC50; output whichever of I , II has the minimum value. Return value: the label identifying the chosen record.
I

----------
# targetEntity: Histone-lysine N-methyltransferase 2A/WDR5 (Homo sapiens, UniProt P61964)
# methodSummary: Inhibition of MLL1/WDR5 (unknown origin) protein-protein interaction incubated for 60 mins by HTRF analysis
pIC50: −log10 of the molar value.
measuredParameter: pIC50

# entrySmiles, measuredParameter, measuredValue
rows = [
    ("Cc1ccc(CO)cc1-c1cc(NCc2nc[nH]c2C)cc2c1CCN(Cc1ccc(Cl)cc1)C2=O", "pIC50", 7.81),
]

I = Cc1[nH]cnc1CNc1cc(C(=O)N[C@H](Cc2ccc(Cl)cc2)C(=O)O)ccc1F
II = CNC(=O)[C@@H](Cc1ccc(Cl)cc1)NC(=O)c1cc(NCc2nc[nH]c2C)cc(-c2ccccc2SC)c1
Given I and given II , which shows the smaller recorded pIC50? Please identify the chosen entry by its label.
I
